# subject-of-test: Focal adhesion kinase 1 (Homo sapiens) (UniProt Q05397)
# Sequence (Q05397 whole entry, looked up): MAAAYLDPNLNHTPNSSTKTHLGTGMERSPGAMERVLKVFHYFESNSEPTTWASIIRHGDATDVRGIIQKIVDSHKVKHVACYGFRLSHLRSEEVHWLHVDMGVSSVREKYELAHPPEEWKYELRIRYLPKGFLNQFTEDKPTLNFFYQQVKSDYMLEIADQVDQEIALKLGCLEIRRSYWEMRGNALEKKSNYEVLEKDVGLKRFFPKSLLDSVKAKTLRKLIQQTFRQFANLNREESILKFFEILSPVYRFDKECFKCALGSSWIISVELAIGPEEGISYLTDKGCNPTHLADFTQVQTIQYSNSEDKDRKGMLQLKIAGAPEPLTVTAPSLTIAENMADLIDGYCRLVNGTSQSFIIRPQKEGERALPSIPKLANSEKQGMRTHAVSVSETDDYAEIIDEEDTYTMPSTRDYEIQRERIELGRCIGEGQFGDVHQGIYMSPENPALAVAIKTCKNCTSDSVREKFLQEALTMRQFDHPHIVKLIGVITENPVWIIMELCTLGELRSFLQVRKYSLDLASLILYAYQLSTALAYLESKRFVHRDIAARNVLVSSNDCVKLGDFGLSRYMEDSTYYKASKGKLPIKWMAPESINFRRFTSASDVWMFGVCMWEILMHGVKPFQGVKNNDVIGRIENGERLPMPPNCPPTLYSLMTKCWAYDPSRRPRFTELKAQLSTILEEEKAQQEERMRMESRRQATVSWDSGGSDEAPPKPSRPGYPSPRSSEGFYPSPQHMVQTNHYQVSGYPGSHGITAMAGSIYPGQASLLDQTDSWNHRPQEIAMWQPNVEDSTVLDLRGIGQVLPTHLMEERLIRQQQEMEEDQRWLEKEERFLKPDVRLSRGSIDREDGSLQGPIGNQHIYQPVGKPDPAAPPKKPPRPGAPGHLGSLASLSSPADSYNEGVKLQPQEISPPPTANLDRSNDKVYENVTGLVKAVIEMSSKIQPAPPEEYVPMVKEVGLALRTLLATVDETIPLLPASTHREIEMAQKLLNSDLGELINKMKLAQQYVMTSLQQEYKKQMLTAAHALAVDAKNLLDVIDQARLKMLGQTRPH
# test-description: PTK2 protein binding on printed compound slides – biochemical, small-molecule microarray, 635/667 nm fluorescence, BSA, DTT, primary screen (AID 1130);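 further: composite of spot emission at 667 nm and signal to noise over triplicate slides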
# condition-context: 635 nm fluorescence, higher = more signal
metric-name: composite z-score
A bare number is all that is needed in reply.

Check out these entries, answers already filled in.
O=C1O[C@@H](c2ccccc2)[C@@H](c2ccccc2)N2[C@@H](c3ccc(OCCO)cc3)[C@]3(C(=O)Nc4ccc(C#CC5=CCCCC5)cc43)[C@@H](C(=O)N3CCCCCCC3)[C@H]12	1.55
C=C(CCCC)/C(=C/C[C@H](OC(=O)c1ccncc1)c1ccc(OCCO)cc1)c1cc(C(=O)OC)ccc1OC	0.525
Cc1ccc(S[C@]2(C(=O)O)CC(=O)N(Cc3ccccc3C(F)(F)F)[C@@H]2c2ccc(CO)cc2I)cc1	-0.0066
COc1ccc(C(=O)Nc2cccc(CN3C(=O)[C@]4(O[C@H](CCn5cc(CCO)nn5)[C@@H]([Si](C)(C)c5ccc(OC)cc5)[C@@H]4C)c4ccccc43)c2)cc1	0.258
COc1cc2c(cc1OC)CN(C(=O)[C@H]1[C@@H]3C(=O)O[C@@H](c4ccccc4)[C@@H](c4ccccc4)N3[C@@H](c3ccccc3OCCO)[C@]13C(=O)Nc1ccc(C#CCCO)cc13)CC2	0.612

Okay, now this compound:
Request: Can you share its composite z-score? I mean this compound: CC(c1ccccc1)C(O)C1C=CC2C(=O)N(C)C(=O)C2N1NC(=O)OC(C)(C)C (stereo unspecified)
Response: 0.235

---

# test-description: compound effects on multiple myeloma cell viability – MM1S, calcein-AM fluorescence, 48 h, basal, profiling panel (AID 1165);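 further: viability of MM1S multiple myeloma cells under basal unstimulated conditions; test concentration not given here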
# condition-context: higher = more signal
Measured z-score, listed per entry.
A bare number is all that is needed in reply.

Request: Can you share its z-score? I mean this compound: [N-]=[N+]=Nc1ccccc1C[C@@]1(C(=O)N2CCCCC2)N=C(c2ccc(OCCCO)cc2)O[C@@H]1c1ccccc1N=[N+]=[N-]
Response: -3.47

Request: Can you share its z-score? I mean this compound: CN1C(=O)C2C=CC(C(O)c3ccc(F)cc3)N(N(c3ccccc3)c3ccccc3)C2C1=O (centres undefined)
Response: 0.0431

Request: Can you share its z-score? I mean this compound: CC(C)NC(=O)[C@@]1(Cc2ccccc2I)c2ccccc2C(=O)N(Cc2ccccc2Cl)[C@H]1c1ccc(CO)cc1
Response: -1.59

Request: Can you share its z-score? I mean this compound: CC(C)N1CC=CC23O[C@@H]4C=CCOC(=O)[C@@H]4[C@H]2C(=O)N(CCCCCO)[C@@H]3C1=O (some centres undefined)
Response: 1.01

---

# test-description: probe aLAP1 signal on lysate-treated microarray – cell lysate, small-molecule microarray, COS7 lysate, primary screen (AID 1124);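 further: lysate comes from COS7 cells expressing LAP1 and is applied at 0.3 µg/mL; score merges spot fluorescence near 667 nm with signal-to-noise over triplicate slides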
# condition-context: probe aLAP1, fluorescence, higher = more signal
Measured composite z-score, listed per entry.
A bare number is all that is needed in reply.

[N-]=[N+]=NCc1ccccc1[C@H]1OC(c2ccc(OCCCO)cc2)=N[C@@]1(Cc1ccccc1)C(=O)N1CCCCC1	0.284
Cc1ccc(S[C@]2(C(=O)O)CC(=O)N(C(C)C)[C@@H]2c2ccc(CO)cc2)cc1	1.14
CN(C)CCCCCCNC(=O)[C@@H]1C[C@@H]2C(=O)N[C@@H](CCCC[N+](C)(C)C)C(=O)N2[C@@H]1c1ccc(O)cc1	0.246
Cc1ccc(S(=O)(=O)N2C[C@@H](C(=O)O)[C@H](Sc3ccccc3)C[C@H]2c2ccccc2)cc1	0.89
COc1ccc([Si](C)(C)[C@H]2[C@H](CCO)O[C@@]3(C(=O)N(Cc4ccccc4)c4ccc(N5CCCCC5=O)cc43)[C@@H]2C)cc1	0.237
CC(C)=CCCC(C)=CC(O)C1C=CC2C(=O)N(c3ccccc3)C(=O)C2N1Nc1ccc(C(C)C)cc1 (centres undefined)	-0.519

Request: Can you share its composite z-score? I mean this compound: C#CCN1[C@@H](Cc2ccc(O)cc2)C(=O)O[C@H](Cc2ccccc2)[C@@H]1/C=C/C1CC1
Response: 0.472

Request: Can you share its composite z-score? I mean this compound: Cc1ccc(S[C@]2(C(=O)NCC(C)C)CC(=O)N(Cc3cc(C(F)(F)F)cc(C(F)(F)F)c3)[C@@H]2c2ccc(CO)cc2)cc1
Response: 1.56

Request: Can you share its composite z-score? I mean this compound: O=C1O[C@H](c2ccccc2)[C@H](c2ccccc2)N2[C@H]1[C@@H](C(=O)NC[C@H](O)c1ccccc1)[C@]1(C(=O)Nc3ccccc31)[C@H]2c1ccc(O)cc1
Response: 0.463
